Provide the recorded ASMS ratio (%) n = 2 for the entries that follow.
# tested-system: Bcl-2 protein (Recombinant Human Bcl-2 Protein) (Homo sapiens, UniProt P10415)
# Construct: purchased Novus Biologicals NBP2-34889
# Sequence (P10415 whole entry): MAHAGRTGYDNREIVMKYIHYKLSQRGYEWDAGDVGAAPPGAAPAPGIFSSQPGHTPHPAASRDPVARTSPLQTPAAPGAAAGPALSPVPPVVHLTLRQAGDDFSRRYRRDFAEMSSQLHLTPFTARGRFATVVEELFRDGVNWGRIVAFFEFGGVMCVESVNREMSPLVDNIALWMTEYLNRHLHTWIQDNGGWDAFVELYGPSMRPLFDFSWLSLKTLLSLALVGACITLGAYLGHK
# method-description: AS-MS evaluation of binding of the Example 4 mixture library (1200 compounds/well) to Bcl-2, ASMS ratio (%)
# stated-conditions: AS-MS, Example 4 mixture library, Bcl-2, replicate n = 2
One number for each entry, in %.

Example entries and their recorded answers appear below.
In [3]: df
Out[3]:
                                   molecule          test_readout  test_result
0  CCOc1cncc(-c2cc(CN3CCN(c4ccc(C(=O)NS(=O)(=O)CCC(F)(F)F)nn4)CC3)cc(OCC)c2)c1  ASMS ratio (%) n = 2          2.8
1  CCOc1cncc(-c2ccc(C(=O)N3CCN(c4ccc(C(=O)NS(=O)(=O)CCC(F)(F)F)nn4)CC3)c3ccccc23)c1  ASMS ratio (%) n = 2          0.0
2  CCOc1cccc(-c2ccc(C(=O)N3CCN(c4ccc(C(=O)NS(=O)(=O)c5ccc(NCCSc6ccccc6)c(C(F)(F)F)c5)nn4)CC3)cc2C)c1  ASMS ratio (%) n = 2          0.0
3  CCOc1cncc(-c2cc(CN3CCN(c4ccc(C(=O)NS(=O)(=O)c5ccc(NCCSc6ccccc6)c(C(F)(F)F)c5)cc4)CC3)cc(OC(C)C)c2)c1  ASMS ratio (%) n = 2          4.8
4  CCOc1cncc(-c2csc(CN3CCN(c4ccc(C(=O)NS(=O)(=O)CCC(F)(F)F)nn4)CC3)c2)c1  ASMS ratio (%) n = 2          0.0
5  CCOc1cccc(-c2ccc(C(C)N3CCN(c4ccc(C(=O)NS(=O)(=O)CCC(F)(F)F)cc4)CC3)c(F)c2)c1 (stereo not drawn)  ASMS ratio (%) n = 2          0.0
6  CCOc1cccc(-c2ccc(CN3CCN(c4ccc(C(=O)NS(=O)(=O)c5ccc(NCCSc6ccccc6)c(C(F)(F)F)c5)cc4)CC3)cc2C)c1  ASMS ratio (%) n = 2         −7.8
7  CCOc1cncc(-c2cc(CN3CCN(c4ccc(C(=O)NS(=O)(=O)CCC(F)(F)F)cc4)CC3)cc(C(F)(F)F)c2)c1  ASMS ratio (%) n = 2          0.0
8  CCOc1cccc(-c2ccc(CN3CCN(c4ccc(C(=O)NS(=O)(=O)c5ccc(NCCSc6ccccc6)c(C(F)(F)F)c5)cc4)CC3)c3ccccc23)c1  ASMS ratio (%) n = 2          0.3
9  CCOc1cncc(-c2cc(CN3CCN(c4ccc(C(=O)NS(=O)(=O)c5ccc(NCCSc6ccccc6)c(C(F)(F)F)c5)nn4)CC3)cc(C(F)(F)F)c2)c1  ASMS ratio (%) n = 2         13.1

Go through the list and state ASMS ratio (%) n = 2 for each entry.
1. CCOc1cccc(-c2cc(C(=O)N3CCN(c4ccc(C(=O)NS(=O)(=O)c5ccc(NCCSc6ccccc6)c(C(F)(F)F)c5)nn4)CC3)cc(C(C)(C)C)c2)c1
2. CCOc1cncc(-c2ccc(C(C)N3CCN(c4ccc(C(=O)NS(=O)(=O)CCC(F)(F)F)cc4)CC3)cc2)c1 (stereo not drawn)

Data returned:
[0.0, "−0.7"]

* * *

# tested-system: Bcl-2 protein (Recombinant Human Bcl-2 Protein) (Homo sapiens, UniProt P10415)
# Construct: purchased Novus Biologicals NBP2-34889
# method-description: AS-MS evaluation of binding of the Example 4 mixture library (1200 compounds/well) to Bcl-2, ASMS ratio (%)
# stated-conditions: replicate n = 2; mixture library; value belongs to the MS peak assigned to the compound
So I've got a bunch of compounds here, and I need their ASMS ratio (%) n = 2 values.
Answers are plain numbers, in %.

Check out these entries, answers already filled in.
>>> df
                                 cpd_smiles  test_result
0  CCOc1cccc(-c2ccccc2CN2CCN(c3ccc(C(=O)NS(C)(=O)=O)nn3)CC2)c1         −1.9
1  CCOc1cccc(-c2ccc(CN3CCN(c4ccc(C(=O)NS(=O)(=O)C(C)(C)C)nn4)CC3)cc2C)c1          0.0
2  CCOc1cncc(-c2ccc(CN3CCN(c4ccc(C(=O)NS(C)(=O)=O)cc4)CC3)c(CC)c2)c1         −1.5
3  CCOc1cncc(C#Cc2cncc(C(=O)N3CCN(c4ccc(C(=O)NS(=O)(=O)C(C)(C)C)nn4)CC3)c2)c1          0.0
4  CCOc1cncc(-c2csc(CN3CCN(c4ccc(C(=O)NS(=O)(=O)C(C)(C)C)cc4)CC3)c2)c1          0.0

Quick one: give me ASMS ratio (%) n = 2 for each item below, same order please.
1. CCOc1cccc(-c2csc(CN3CCN(c4ccc(C(=O)NS(=O)(=O)C(C)(C)C)cc4)CC3)c2)c1
2. CCOc1cncc(C#Cc2ccccc2C(=O)N2CCN(c3ccc(C(=O)NS(=O)(=O)C(C)(C)C)nn3)CC2)c1

Data returned:
[0.0, 0.0]

* * *

So I've got a bunch of compounds here, and I need their ASMS ratio (%) n = 2 values.
# tested-system: Bcl-2 protein (Recombinant Human Bcl-2 Protein) (Homo sapiens)
# Construct: purchased Novus Biologicals NBP2-34889
# method-description: AS-MS evaluation of binding of the Example 4 mixture library (1200 compounds/well) to Bcl-2, ASMS ratio (%)
# stated-conditions: AS-MS, Example 4 mixture library, Bcl-2, replicate n = 2
One number for each entry, in %.

List the reported ASMS ratio (%) n = 2 of each compound below.
1. CCOc1cccc(-c2ccc(CN3CCN(c4ccc(C(=O)NS(=O)(=O)c5ccc(NCCSc6ccccc6)c(C(F)(F)F)c5)nn4)CC3)c3ccccc23)c1
2. CCOc1cccc(-c2cc(CN3CCN(c4ccc(C(=O)NS(=O)(=O)CCC(F)(F)F)cc4)CC3)cc(OCC)c2)c1
3. CCOc1cccc(-c2cc(CN3CCN(c4ccc(C(=O)NS(=O)(=O)c5ccc(NCCSc6ccccc6)c(C(F)(F)F)c5)cc4)CC3)cc(OC(F)(F)F)c2)c1
4. CCOc1cccc(-c2ccc(C(=O)N3CCN(c4ccc(C(=O)NS(=O)(=O)CCC(F)(F)F)cc4)CC3)cc2C)c1

Data returned:
1. 1.8
2. 0.0
3. 4.6
4. 0.0

Each compound below has a reported value. Please supply its ASMS ratio (%) n = 2.
1. CCOc1cncc(-c2ccccc2CCC(=O)N2CCN(c3ccc(C(=O)NS(=O)(=O)c4ccc(NCCSc5ccccc5)c(C(F)(F)F)c4)nn3)CC2)c1
2. CCOc1cncc(-c2ccccc2CN2CCN(c3ccc(C(=O)NS(=O)(=O)c4ccc(NCCSc5ccccc5)c(C(F)(F)F)c4)nn3)CC2)c1

Data returned:
1. 13.5
2. 11.4

* * *

# tested-system: Bcl-2 protein (Recombinant Human Bcl-2 Protein) (Homo sapiens, UniProt P10415)
# Construct: purchased Novus Biologicals NBP2-34889
# method-description: AS-MS evaluation of binding of the Example 4 mixture library (1200 compounds/well) to Bcl-2, ASMS ratio (%)
# stated-conditions: replicate n = 2; mixture library; value belongs to the MS peak assigned to the compound
Provide the reported ASMS ratio (%) n = 2 of each item.

>>> df
                                 cpd_smiles                             tested_system  test_result
0  CCOc1cccc(-c2ccc(CN3CCN(c4ccc(C(=O)NS(=O)(=O)C(C)(C)C)cc4)CC3)c(OC)c2)c1  Bcl-2 protein (Recombinant Human Bcl-2 Protein) (Homo sapiens, UniProt P10415)         0.0%
1  CCOc1cccc(-c2cc(CN3CCN(c4ccc(C(=O)NS(=O)(=O)C(C)(C)C)cc4)CC3)cc(C(F)(F)F)c2)c1  Bcl-2 protein (Recombinant Human Bcl-2 Protein) (Homo sapiens, UniProt P10415)       −11.1%
2  CCOc1cccc(-c2cc(CN3CCN(c4ccc(C(=O)NS(C)(=O)=O)cc4)CC3)cc(OC(F)(F)F)c2)c1  Bcl-2 protein (Recombinant Human Bcl-2 Protein) (Homo sapiens, UniProt P10415)         0.0%
3  CCOc1cccc(-c2cc(CN3CCN(c4ccc(C(=O)NS(C)(=O)=O)cc4)CC3)cc(OCC)c2)c1  Bcl-2 protein (Recombinant Human Bcl-2 Protein) (Homo sapiens, UniProt P10415)         0.0%
4  CCOc1cncc(-c2cc(CN3CCN(c4ccc(C(=O)NS(C)(=O)=O)cc4)CC3)cc(OC(C)C)c2)c1  Bcl-2 protein (Recombinant Human Bcl-2 Protein) (Homo sapiens, UniProt P10415)         0.0%
5  CCOc1cncc(-c2cc(C(=O)N3CCN(c4ccc(C(=O)NS(=O)(=O)C(C)(C)C)cc4)CC3)cc(C(C)(C)C)c2)c1  Bcl-2 protein (Recombinant Human Bcl-2 Protein) (Homo sapiens, UniProt P10415)         0.0%
6  CCOc1cccc(-c2cc(CN3CCN(c4ccc(C(=O)NS(=O)(=O)C(C)(C)C)cc4)CC3)cc(OC(C)C)c2)c1  Bcl-2 protein (Recombinant Human Bcl-2 Protein) (Homo sapiens, UniProt P10415)         0.0%
7  CCOc1cncc(-c2cc(CN3CCN(c4ccc(C(=O)NS(C)(=O)=O)nn4)CC3)cc(OCC)c2)c1  Bcl-2 protein (Recombinant Human Bcl-2 Protein) (Homo sapiens, UniProt P10415)         1.9%

Batch: ASMS ratio (%) n = 2 for all items listed.
1. CCOc1cccc(-c2ccc(CN3CCN(c4ccc(C(=O)NS(=O)(=O)C(C)(C)C)nn4)CC3)c(OC)c2)c1
2. CCOc1cccc(-c2ccc(CN3CCN(c4ccc(C(=O)NS(=O)(=O)C(C)(C)C)cc4)CC3)c(CC)c2)c1
3. CCOc1cncc(C#Cc2ccccc2CN2CCN(c3ccc(C(=O)NS(C)(=O)=O)cc3)CC2)c1

Data returned:
1. 0.0%
2. 0.0%
3. 0.0%

Go through the items and report each one's ASMS ratio (%) n = 2.
1. CCOc1cncc(-c2ccc(C(=O)N3CCN(c4ccc(C(=O)NS(=O)(=O)C(C)(C)C)nn4)CC3)cc2F)c1
2. CCOc1cccc(C#Cc2ccccc2CN2CCN(c3ccc(C(=O)NS(C)(=O)=O)nn3)CC2)c1

Data returned:
1: 0.0%; 2: 0.0%

meta.source: patent US20250154686A1
